# MIC per entry
- test-system: H3 hemagglutinin of H3N2 strain X-31 (influenza A virus X-31 (H3N2)) (UniProt P03437)
- protocol: cell-based or functional assay
Write the answer as a number in µg/mL, unit excluded.

The examples below pair each entry with its known result.
{"binder": "Ab 031 (antibody, V domains shown) VH: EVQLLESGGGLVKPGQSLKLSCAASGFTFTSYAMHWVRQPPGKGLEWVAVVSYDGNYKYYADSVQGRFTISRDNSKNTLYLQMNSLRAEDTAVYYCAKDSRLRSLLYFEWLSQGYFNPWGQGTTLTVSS VL: DIQMTQSPSSLSASVGDRVTITCRSSQSITFNYKNYLAWYQQKPGKAPKLLIYWGSYLESGVPSRFSGSGSGTDFTLTISSLQPEDFATYYCQQHYRTPPSFGQGTKVEIK", "experimental-readout": "MIC", "endpoint-value": 20}
{"binder": "Ab 005 (antibody, V domains shown) VH: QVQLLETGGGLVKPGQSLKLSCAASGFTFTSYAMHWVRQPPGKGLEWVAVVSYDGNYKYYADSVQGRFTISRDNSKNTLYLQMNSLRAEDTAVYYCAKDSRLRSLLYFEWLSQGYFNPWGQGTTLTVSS VL: DIVMTQSPDTVAVTVGERATINCKSSQTVTFNYKNYLAWYQQKPGQPPKLLIYWASTRESGVPDRFSGSGSGTDFTLTISSLQAEDVAVYYCQQHYRTPPSFGQGTKLDIK", "experimental-readout": "MIC", "endpoint-value": 10}
{"binder": "Ab 004 (antibody, V domains shown) VH: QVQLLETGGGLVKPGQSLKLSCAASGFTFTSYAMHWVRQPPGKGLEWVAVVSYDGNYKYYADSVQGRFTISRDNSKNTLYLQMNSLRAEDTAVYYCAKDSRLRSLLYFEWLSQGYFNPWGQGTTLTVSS VL: DIVMTQSPDTLAVTLGERATIQCKSSQTVTFNYKNYLAWYQQKPGQPPKLLIYWASTRESGVPDRFSGSGSGTDFTLTITSLQAEDVAVYYCQQHYRTPPSFGQGTKLDIK", "experimental-readout": "MIC", "endpoint-value": 6}

Let us examine a further case.
Req: Input Ab 038 (antibody, V domains shown) VH: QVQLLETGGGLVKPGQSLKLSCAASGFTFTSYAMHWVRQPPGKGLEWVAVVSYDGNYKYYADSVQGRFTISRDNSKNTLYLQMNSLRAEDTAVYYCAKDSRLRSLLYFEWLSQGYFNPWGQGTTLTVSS VL: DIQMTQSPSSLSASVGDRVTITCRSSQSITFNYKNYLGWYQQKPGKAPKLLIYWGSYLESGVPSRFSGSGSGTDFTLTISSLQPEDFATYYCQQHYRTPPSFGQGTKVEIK , output reported MIC.
Resp: 4

These measurements were taken from patent US20220204592A1.
